# Target of assay: human ether-à-go-go-related gene (hERG) potassium channel (human, UniProt Q12809);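 also: peak tail current of the secondary pulse compared with the same well before compound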
# Sequence (Q12809 whole entry, looked up): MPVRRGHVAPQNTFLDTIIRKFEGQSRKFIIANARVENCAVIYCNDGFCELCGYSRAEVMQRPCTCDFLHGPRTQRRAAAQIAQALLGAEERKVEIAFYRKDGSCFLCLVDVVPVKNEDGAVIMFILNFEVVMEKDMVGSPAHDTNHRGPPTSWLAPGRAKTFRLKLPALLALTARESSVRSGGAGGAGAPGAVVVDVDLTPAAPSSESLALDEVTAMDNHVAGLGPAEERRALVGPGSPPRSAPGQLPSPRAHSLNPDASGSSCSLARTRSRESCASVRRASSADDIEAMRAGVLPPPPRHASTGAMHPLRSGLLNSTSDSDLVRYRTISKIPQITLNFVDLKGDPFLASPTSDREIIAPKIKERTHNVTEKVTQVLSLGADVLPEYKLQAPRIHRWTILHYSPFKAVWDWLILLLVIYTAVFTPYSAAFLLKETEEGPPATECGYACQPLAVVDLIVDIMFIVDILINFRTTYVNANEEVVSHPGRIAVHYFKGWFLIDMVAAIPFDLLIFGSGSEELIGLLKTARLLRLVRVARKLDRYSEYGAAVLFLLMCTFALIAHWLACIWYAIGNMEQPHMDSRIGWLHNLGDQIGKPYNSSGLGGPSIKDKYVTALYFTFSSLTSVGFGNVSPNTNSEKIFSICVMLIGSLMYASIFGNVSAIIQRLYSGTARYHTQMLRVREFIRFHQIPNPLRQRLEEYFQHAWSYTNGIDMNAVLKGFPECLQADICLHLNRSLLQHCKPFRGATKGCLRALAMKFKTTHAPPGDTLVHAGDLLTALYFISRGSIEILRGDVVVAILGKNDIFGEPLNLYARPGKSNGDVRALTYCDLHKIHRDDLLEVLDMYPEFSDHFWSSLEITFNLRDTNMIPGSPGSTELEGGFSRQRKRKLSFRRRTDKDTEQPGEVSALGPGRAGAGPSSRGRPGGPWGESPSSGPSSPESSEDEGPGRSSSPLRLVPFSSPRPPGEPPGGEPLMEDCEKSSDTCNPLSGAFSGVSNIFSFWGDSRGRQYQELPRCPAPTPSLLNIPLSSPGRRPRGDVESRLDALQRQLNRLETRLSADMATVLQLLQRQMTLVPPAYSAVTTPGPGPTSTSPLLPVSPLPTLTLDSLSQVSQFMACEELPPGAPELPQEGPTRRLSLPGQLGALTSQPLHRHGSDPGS
# Procedure summary: primary screen, population patch clamp on CHO cells stably expressing hERG; higher = less effect of the substance
The campaign covered roughly 310,000 compounds. About 14,000 (4.5%) showed an effect of 50% or more. The effect is printed as a negative number. The full list was thinned out, with strong results kept by preference.
Assay metric: hERG current change (%, negative = inhibition) at 10uM (%)
Reply with just the number (in %).

INSERT INTO results (compound, target_of_assay, unit_info, observed) VALUES
  ('Cc1ccc2[nH]c(=O)c(CN(CCO)C(=O)N(C)C)cc2c1', 'human ether-à-go-go-related gene (hERG) potassium channel (human, UniProt Q12809)', '%', 5.5),
  ('Cc1cccc(OCCOC(=O)c2ccc(F)c(S(=O)(=O)N3CCOCC3)c2)c1', 'human ether-à-go-go-related gene (hERG) potassium channel (human, UniProt Q12809)', '%', -18.1);

Prompt: // hERG current change (%, negative = inhibition) at 10uM lookup, key: COc1ccc(OCC(O)CNC(=O)c2ccccc2)cc1 (stereo not shown)
Completion: 9.92

Prompt: // hERG current change (%, negative = inhibition) at 10uM lookup, key: COC(=O)c1ccc(/C=C/C(=O)O)cc1
Completion: 11.9

Prompt: // hERG current change (%, negative = inhibition) at 10uM lookup, key: CCC(=O)N1CCc2cc(S(=O)(=O)CCC(=O)NCc3cccc(OC)c3)ccc21
Completion: 13.8

Prompt: // hERG current change (%, negative = inhibition) at 10uM lookup, key: O=C(NCCc1ccccc1)C1CCN(C2CCN(Cc3ccc(CO)o3)CC2)CC1
Completion: 18.2

Prompt: // hERG current change (%, negative = inhibition) at 10uM lookup, key: Cc1ccc(NC(=S)NCCc2c[nH]c3ccccc23)cc1
Completion: -1.12

Prompt: // hERG current change (%, negative = inhibition) at 10uM lookup, key: CCN(CC)CCC(c1ccc(OC)cc1)c1c(O)cc(OC)cc1OC (stereo not shown)
Completion: -66.4

Prompt: // hERG current change (%, negative = inhibition) at 10uM lookup, key: Cc1ccc2[nH]c(=O)c(CN(CCCN(C)C)C(=O)Nc3ccc(F)cc3)cc2c1
Completion: -70.7

* * *

# Target of assay: human ether-à-go-go-related gene (hERG) potassium channel (human, UniProt Q12809);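 also: peak tail current of the secondary pulse compared with the same well before compound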
# Procedure summary: primary screen, population patch clamp on CHO cells stably expressing hERG; higher = less effect of the substance
Among all 310,000 compounds or so, about 14,000 (4.5%) showed an effect of 50% or more. Effects have a minus sign here. Shown is part of a subset that was picked to be rich in strong results.
hERG current change (%, negative = inhibition) at 10uM values by entry
Reply with just the number (in %).

INSERT INTO assay_data (compound, unit_info, observed) VALUES
  ('COc1cccc(-c2nnc(SCC3CNC(=O)O3)n2-c2ccc(Cl)cc2)c1 (stereo not drawn)', '%', 8.33),
  ('COc1ccc(NC(=O)CN2CCCCC2)cc1.O=C(O)C(=O)O', '%', 3.8);

Next compound, please.
Prompt: // hERG current change (%, negative = inhibition) at 10uM lookup, key: COc1ccc(C)cc1NC(=O)C(=O)N/N=C(\C)CC(=O)Nc1cccnc1
Completion: 2.77

* * *

# Target of assay: human ether-à-go-go-related gene (hERG) potassium channel (human, UniProt Q12809);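 also: peak tail current of the secondary pulse compared with the same well before compound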
# Procedure summary: primary screen, population patch clamp on CHO cells stably expressing hERG; higher = less effect of the substance
The whole screen tested about 310,000 compounds, of which about 14,000 (4.5%) showed an effect of 50% or more. Effects have a minus sign here. For the sample, strong results were picked, then their nearest neighbours and some compounds at random.
Binary call on hERG current change (%, negative = inhibition) at 10uM: rule met from -50% upward, rule not met beneath that.

INSERT INTO results (mol, category_label) VALUES
  ('C=CCOc1ccccc1CN1CCC(C(=O)Nc2cccc(-c3ccn[nH]3)c2)CC1', 'rule met');

Prompt: Could you please find out whether CNC(=O)CN(C)S(=O)(=O)c1ccc(OC)c(Cl)c1 has hERG current change (%, negative = inhibition) at 10uM that meets -50% or exceeds it?
Completion: rule met

Prompt: Could you please find out whether CN(C1CCCCC1)S(=O)(=O)c1cccc(C(=O)Nc2ccccn2)c1 has hERG current change (%, negative = inhibition) at 10uM that meets -50% or exceeds it?
Completion: rule not met

Prompt: Could you please find out whether CCN1CCN(S(=O)(=O)c2ccc(C(=O)Nc3sc4c(c3C(N)=O)CCN(CC)C4)cc2)CC1 has hERG current change (%, negative = inhibition) at 10uM that meets -50% or exceeds it?
Completion: rule met

Prompt: Could you please find out whether CCn1c(C)nc2c(=O)oc3ccccc3c21 has hERG current change (%, negative = inhibition) at 10uM that meets -50% or exceeds it?
Completion: rule met

Prompt: Could you please find out whether CCN1CCc2c(sc(NC(=O)c3ccc(S(=O)(=O)N4CCOCC4)cc3)c2C(N)=O)C1 has hERG current change (%, negative = inhibition) at 10uM that meets -50% or exceeds it?
Completion: rule met

Prompt: Could you please find out whether CCN1CCc2c(sc(NC(=O)c3ccc(C(=O)c4ccccc4)cc3)c2C(N)=O)C1.Cl has hERG current change (%, negative = inhibition) at 10uM that meets -50% or exceeds it?
Completion: rule not met

Prompt: Could you please find out whether CCN1CCc2c(sc(NC(=O)c3ccc4ccccc4c3)c2C(N)=O)C1.Cl has hERG current change (%, negative = inhibition) at 10uM that meets -50% or exceeds it?
Completion: rule met

Prompt: Could you please find out whether CC(=O)c1cccc(CN2CCC(C(=O)Nc3cccc(-c4ccn[nH]4)c3)CC2)c1 has hERG current change (%, negative = inhibition) at 10uM that meets -50% or exceeds it?
Completion: rule met

Prompt: Could you please find out whether CCCn1cc(CN2CCC(C(=O)Nc3cccc(-c4cscn4)c3)CC2)c(C)n1 has hERG current change (%, negative = inhibition) at 10uM that meets -50% or exceeds it?
Completion: rule met

Prompt: Could you please find out whether Cl.NC(=O)c1c(NC(=O)c2ccccc2)sc2c1CCN(Cc1ccccc1)C2 has hERG current change (%, negative = inhibition) at 10uM that meets -50% or exceeds it?
Completion: rule met

Prompt: Could you please find out whether CCCn1ncc(CN2CCC(C(=O)Nc3cccc(-c4cccc(F)c4)c3)CC2)c1C has hERG current change (%, negative = inhibition) at 10uM that meets -50% or exceeds it?
Completion: rule not met

* * *

# Target of assay: human ether-à-go-go-related gene (hERG) potassium channel (human);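 also: peak tail current of the secondary pulse compared with the same well before compound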
# Procedure summary: primary screen, population patch clamp on CHO cells stably expressing hERG; higher = less effect of the substance
The whole screen tested about 310,000 compounds, of which about 14,000 (4.5%) showed an effect of 50% or more. Effects have a minus sign here. What follows is part of a selection rich in strong results, with near analogues and random picks from the rest.
Assay metric: hERG current change (%, negative = inhibition) at 10uM
Form field: result (number plus unit)

Here are 3 compounds together with their reported answers.
INSERT INTO results (compound, observed) VALUES
  ('CCOC(=O)N1CCN(C(=O)c2cc(COc3cccc(C(C)=O)c3)on2)CC1', '1.62%'),
  ('CCOc1cc(C=O)cc(Br)c1OCC(=O)NCCc1ccccc1', '-81.7%'),
  ('COc1ccc(C(CNC(=O)C(=O)Nc2ccc3c(c2)OCO3)N2CCN(C)CC2)cc1 (stereo not shown)', '-50.9%');

Prompt: // hERG current change (%, negative = inhibition) at 10uM lookup, key: Cc1ccc(S(=O)(=O)N2CCN(c3ccc(N4CCOCC4)nn3)CC2)cc1[N+](=O)[O-]
Completion: -4.74%

Prompt: // hERG current change (%, negative = inhibition) at 10uM lookup, key: COc1ccc(OCc2cc(C(=O)NC(C)Cc3cccnc3)no2)c(Cl)c1 (stereo not shown)
Completion: -36.3%

Prompt: // hERG current change (%, negative = inhibition) at 10uM lookup, key: Cc1ccc(C(CNC(=O)C(=O)Nc2ccc3c(c2)OCCO3)N2CCN(C)CC2)cc1 (stereo not shown)
Completion: -55.5%

Prompt: // hERG current change (%, negative = inhibition) at 10uM lookup, key: Cc1ccc(OCc2cc(C(=O)NC(C)Cc3cccnc3)no2)cc1C (stereo not shown)
Completion: -91%

Prompt: // hERG current change (%, negative = inhibition) at 10uM lookup, key: O=C(c1cc(COc2cccc(C(F)(F)F)c2)on1)N1CCSCC1
Completion: -17%

Prompt: // hERG current change (%, negative = inhibition) at 10uM lookup, key: Cc1cc(C)n(-c2nc(C(=O)O)cs2)n1
Completion: 17.7%

Prompt: // hERG current change (%, negative = inhibition) at 10uM lookup, key: CC(C)(C)C(=O)N1CCN(c2nc3ccc(Cl)cc3s2)CC1
Completion: -12.2%

Prompt: // hERG current change (%, negative = inhibition) at 10uM lookup, key: CCOc1cc(C=O)cc(Br)c1OCC(N)=O
Completion: 2.71%

Prompt: // hERG current change (%, negative = inhibition) at 10uM lookup, key: CC(C)CNC(=O)C(=O)NCC(c1ccc2c(c1)OCO2)N1CCOCC1 (stereo not shown)
Completion: 6.81%

Prompt: // hERG current change (%, negative = inhibition) at 10uM lookup, key: Cn1c(=O)[nH]c(=O)c2c1nc(N(CCO)Cc1ccccc1)n2CCCc1ccccc1
Completion: -64.6%

Prompt: // hERG current change (%, negative = inhibition) at 10uM lookup, key: CC(NCc1ccc(OCC(N)=O)cc1)C12CC3CC(CC(C3)C1)C2.Cl (stereo not shown)
Completion: -11.2%

Prompt: // hERG current change (%, negative = inhibition) at 10uM lookup, key: Cl.O=C(COc1ccc(Br)cc1CNCCc1ccccc1)NCc1ccccc1
Completion: -61.1%

Prompt: // hERG current change (%, negative = inhibition) at 10uM lookup, key: CC(=O)c1cccc(OCc2cc(C(=O)NC(C)Cc3cccnc3)no2)c1 (stereo not shown)
Completion: -6.23%

Prompt: // hERG current change (%, negative = inhibition) at 10uM lookup, key: CCCCC(=O)N1CCN(c2nc3ccc(OCC)cc3s2)CC1
Completion: -35.5%

Prompt: // hERG current change (%, negative = inhibition) at 10uM lookup, key: CCCC(=O)N1CCN(c2nc3ccc(CC)cc3s2)CC1
Completion: -23.4%

Prompt: // hERG current change (%, negative = inhibition) at 10uM lookup, key: CCCC(=O)N1CCN(c2nc3ccccc3s2)CC1
Completion: -24.7%
